Listed next: entries and their corresponding IC50.
biological target: recombinant eIF4E (Homo sapiens (Human)); assay: Fluorescence polarization competition assay for eIF4E binding potency; conditions: fluorescence polarization competition, 75 nM recombinant eIF4E, 20 nM EDA-m7GDP-ATTO-550; IC50 class; read-out: elF4E FP
Sequence (P06730 whole entry): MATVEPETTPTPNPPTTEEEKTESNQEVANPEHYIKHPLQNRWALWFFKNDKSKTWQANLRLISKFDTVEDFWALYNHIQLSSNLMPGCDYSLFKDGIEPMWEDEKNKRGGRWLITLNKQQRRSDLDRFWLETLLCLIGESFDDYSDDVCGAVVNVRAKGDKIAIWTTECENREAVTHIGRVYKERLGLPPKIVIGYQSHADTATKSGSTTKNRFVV

[
  {
    "COMPOUND": "CCc1cc(-c2cc(Cl)ccc2OCCn2c(C)nc3cc(C(F)(F)F)c(N4CCN(C)CC4)c(C#N)c3c2=O)c2scc(C(=O)O)c2n1 [compound 1085]",
    "IC50": "50 to 1000 nM"
  },
  {
    "COMPOUND": "Cc1nc2cc(C(F)(F)F)c(CN(C)C)cc2c(=O)n1CCOc1ccc(Cl)cc1-c1ccnc2c(C(=O)O)csc12 [compound 408]",
    "IC50": "< 50 nM"
  },
  {
    "COMPOUND": "Cc1cc(-c2cc(Cl)ccc2OCCn2c(C)nc3cc(C(F)(F)F)c(CC(=O)N(C)C)c(C#N)c3c2=O)c2scc(C(=O)O)c2n1 [compound 909]",
    "IC50": "< 50 nM"
  },
  {
    "COMPOUND": "Cc1cc(-c2cc(Cl)ccc2OCCn2c(C)nc3cc(C(F)(F)F)c(N4CCS(=O)(=O)CC4)c(C#N)c3c2=O)c2scc(C(=O)O)c2n1 [compound 867]",
    "IC50": "< 50 nM"
  },
  {
    "COMPOUND": "COc1ncc(-c2cc(Cl)ccc2OCCn2cnc3cnc(C#N)cc3c2=O)nc1C(=O)O [compound 90]",
    "IC50": "> 1000 nM"
  },
  {
    "COMPOUND": "Cc1nc2ccc(S(=O)(=O)N3CCCCC3)c(C#N)c2c(=O)n1CCOc1ccc(Cl)cc1-c1ccnc2c(C(=O)O)csc12 [compound 251]",
    "IC50": "< 50 nM"
  },
  {
    "COMPOUND": "Cc1cc(-c2cc(Cl)ccc2OCCn2c(C)nc3cc(CN(C)C)c(OC(F)F)c(C#N)c3c2=O)c2scc(C(=O)NS(C)(=O)=O)c2n1 [compound 451]",
    "IC50": "< 50 nM"
  },
  {
    "COMPOUND": "Cc1cc(-c2c(F)cc3nc(C)n(CCOc4ccc(Cl)cc4-c4cc(C)nc5c(C(=O)O)csc45)c(=O)c3c2C#N)cc(C)n1 [compound 932]",
    "IC50": "< 50 nM"
  },
  {
    "COMPOUND": "Cc1cc(-c2nc3c(=O)n(CCOc4ccc(Cl)cc4-c4ccc(C(N)=O)c5c(C(=O)O)csc45)c(C)nc3cc2C(F)(F)F)ccn1 [788Fb]",
    "IC50": "< 50 nM"
  },
  {
    "COMPOUND": "Cc1cc(-c2cc(Cl)ccc2OCCn2c(C)nc3cnc(N4CCC(O)C4)c(C#N)c3c2=O)c2scc(C(=O)O)c2n1 (centres unmarked) [compound 1056]",
    "IC50": "< 50 nM"
  },
  {
    "COMPOUND": "Cc1cc(-c2cc(Cl)ccc2OCCn2c(C)nc3cc4c(c(C#N)c3c2=O)CCC4)c2scc(C(=O)O)c2n1 [compound 748]",
    "IC50": "< 50 nM"
  },
  {
    "COMPOUND": "Cc1nc2cc(C(F)(F)F)cc(C#N)c2c(=O)n1CCOc1ccc(Cl)cc1-c1ccc(C(=O)O)c(C(=O)O)c1 [compound 158]",
    "IC50": "< 50 nM"
  },
  {
    "COMPOUND": "Cc1cc(-c2cc(Cl)ccc2OCCn2c(C)nc3cnc(-n4cccn4)c(C#N)c3c2=O)c2scc(C(=O)O)c2n1 [compound 984]",
    "IC50": "< 50 nM"
  },
  {
    "COMPOUND": "Cc1ncc(F)cc1-c1c(C(F)(F)F)cc2nc(C)n(CCOc3ccc(Cl)cc3-c3ccnc4c(C(=O)O)csc34)c(=O)c2c1C#N [compound 847]",
    "IC50": "< 50 nM"
  },
  {
    "COMPOUND": "Cc1nc2cnc(N(C)C3CCN([C@@H]4C[C@H]4C(F)(F)F)CC3)c(C#N)c2c(=O)n1CC#Cc1ccc(Cl)cc1-c1ccnc2c(C(=O)O)csc12 [compound 1175]",
    "IC50": "< 50 nM"
  },
  {
    "COMPOUND": "COC1CCN(c2ncc3nc(C)n(CCOc4ccc(Cl)cc4-c4cc(C)nc5c(C(=O)O)csc45)c(=O)c3c2C#N)C1 (centres unmarked) [compound 1234]",
    "IC50": "< 50 nM"
  },
  {
    "COMPOUND": "Cc1cc(-c2cc(Cl)ccc2OCCn2c(C)nc3cc(C(F)(F)F)c(N4CC(F)(F)C4)c(C#N)c3c2=O)c2scc(C(=O)O)c2n1 [compound 687]",
    "IC50": "< 50 nM"
  },
  {
    "COMPOUND": "Cc1cc(-c2cc(Cl)ccc2OCCn2c(C)nc3cnc([C@H]4C[C@@H](O)C4)c(C#N)c3c2=O)c2scc(C(=O)O)c2n1 [compound 1194]",
    "IC50": "< 50 nM"
  },
  {
    "COMPOUND": "Cc1nc2cc(C(F)(F)F)cc(C#N)c2c(=O)n1CCOc1ccc(Cl)cc1-c1ccnc2c(C(=O)O)c(C(C)C)sc12 [compound 667]",
    "IC50": "< 50 nM"
  },
  {
    "COMPOUND": "Cc1cc(-c2cc(Cl)ccc2OCCn2c(C)nc3c(C)nc(-c4ccccc4Cl)c(C#N)c3c2=O)c2scc(C(=O)O)c2n1 [compound 482]",
    "IC50": "< 50 nM"
  },
  {
    "COMPOUND": "CSc1ncc(-c2cc(Cl)ccc2OCCn2cnc3cnc(C#N)cc3c2=O)nc1C(=O)O [compound 98]",
    "IC50": "50 to 1000 nM"
  },
  {
    "COMPOUND": "Cc1nc2cc(Cl)c(F)c(C#N)c2c(=O)n1CCOc1ccc(Cl)cc1-c1ccnc2c(C(=O)O)csc12 [compound 242]",
    "IC50": "< 50 nM"
  },
  {
    "COMPOUND": "Cc1cc(-c2cc(Cl)ccc2OCCn2c(C)nc3cc(Cl)c(N4CC(O)C4)c(C#N)c3c2=O)c2scc(C(=O)O)c2n1 [compound 698]",
    "IC50": "< 50 nM"
  },
  {
    "COMPOUND": "Cc1cc(-c2cc(Cl)ccc2OCCn2c(C)nc3ccc(CCN(C)C)c(C#N)c3c2=O)c2scc(C(=O)O)c2n1 [compound 584]",
    "IC50": "< 50 nM"
  },
  {
    "COMPOUND": "O=C(O)c1cccc(-c2cc(Cl)ccc2OCCn2ccc3nnccc3c2=O)c1 [compound 15]",
    "IC50": "> 1000 nM"
  },
  {
    "COMPOUND": "CCc1ncc2nc(C)n(CCOc3ccc(Cl)cc3-c3ccnc4c(C(=O)O)csc34)c(=O)c2c1C#N [compound 813]",
    "IC50": "< 50 nM"
  }
]

// provenance: patent US11286268B1
